# TGT: Mammalian Cathepsin K (Homo sapiens, UniProt P43235)
# ASSAY_METHOD_TEXT: Ki competitive inhibition, cathepsin K
# Assay type: biochemical
# TEST_CONTEXT: Table 1, third line of each CAP-P2 block; read-out: Ki competitive inhibition measurements vs Mammalian Cathepsin K
MEASUREMENT_TYPE: Ki (nM)

Study these solved cases before continuing.
| MOLECULE | MEASURE_UNIT | Ki |
| --- | --- | --- |
| CCCC[C@H](NC(=O)c1ccc(O)cc1)C(=O)N[C@@H]1COCC1=O [CAP1-L-Nle/drawing 73] | nM | 1150 |
| CCCC[C@H](NC(=O)c1ccccc1)C(=O)N[C@H]1COCC1=O [CAP3-L-Nle/drawing 72] | nM | 5800 |

1 = CC(C)CC[C@H](NC(=O)N1CCOCC1)C(=O)N[C@@H]1C(=O)CO[C@@H]1C [CAP9-L-hLeu/drawing 69]
2 = C[C@H]1OCC(=O)[C@H]1NC(=O)[C@H](CC(C)(C)C)NC(=O)c1ccc(O)cc1 [CAP1-L-tBu-Ala/drawing 69]
I'm curious, which of these has a smaller Ki number: 1 or 2 ? Refer to your chosen item by its label in the answer.
2

A = CC(C)C[C@H](NC(=O)c1cccs1)C(=O)N[C@@H]1C(=O)CO[C@@H]1C [CAP5-L-Leu/drawing 69]
B = CCCC[C@H](NC(=O)c1ccc(N(C)C)cc1)C(=O)N[C@@H]1C(=O)CO[C@H]1C [CAP7-L-Nle/drawing 71]
I'm curious, which of these has a smaller Ki number: A or B ? Refer to your chosen item by its label in the answer.
A
(A: 290 nM, B: 1300 nM)

====

# TGT: Mammalian Cathepsin K (Homo sapiens)
# Sequence (P43235 115-329): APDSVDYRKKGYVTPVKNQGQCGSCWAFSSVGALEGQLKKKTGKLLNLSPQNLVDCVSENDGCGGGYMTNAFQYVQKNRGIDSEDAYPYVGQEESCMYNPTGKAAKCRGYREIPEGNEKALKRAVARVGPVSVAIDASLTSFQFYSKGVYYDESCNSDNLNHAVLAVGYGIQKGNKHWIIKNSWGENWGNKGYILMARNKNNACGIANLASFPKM
# ASSAY_METHOD_TEXT: Ki competitive inhibition, cathepsin K
# Type: biochemical
# TEST_CONTEXT: Table 1, third line of each CAP-P2 block; read-out: Ki competitive inhibition measurements vs Mammalian Cathepsin K
pKi: −log10 of the molar value.
MEASUREMENT_TYPE: pKi

Study these solved cases before continuing.
| COMPOUND | VAL |
| --- | --- |
| CC(C)CC[C@H](NC(=O)N1CCOCC1)C(=O)N[C@@H]1C(=O)CO[C@H]1C [CAP9-L-hLeu/drawing 71] | < 4.00 |
| CC(C)CC[C@H](NC(=O)c1ccoc1)C(=O)N[C@H]1C(=O)CO[C@H]1C [CAP8-L-hLeu/drawing 70] | < 4.00 |

Next item in the queue.
Quick note, pKi for Cc1cc(C(=O)N[C@@H](Cc2ccc(O)cc2)C(=O)N[C@@H]2C(=O)CO[C@@H]2C)oc1C [CAP6-L-Tyr/drawing 69] landed at < 4.00
